Where do these numbers come from? They come from patent US10562912B2.

- Tgt: STAT3 (Homo sapiens, UniProt P40763)
- Construct: plasmid pSTAT3-TA-luc), which contains a stably operating STAT3 promoter; endogenous in cells
- Sequence (P40763 whole entry): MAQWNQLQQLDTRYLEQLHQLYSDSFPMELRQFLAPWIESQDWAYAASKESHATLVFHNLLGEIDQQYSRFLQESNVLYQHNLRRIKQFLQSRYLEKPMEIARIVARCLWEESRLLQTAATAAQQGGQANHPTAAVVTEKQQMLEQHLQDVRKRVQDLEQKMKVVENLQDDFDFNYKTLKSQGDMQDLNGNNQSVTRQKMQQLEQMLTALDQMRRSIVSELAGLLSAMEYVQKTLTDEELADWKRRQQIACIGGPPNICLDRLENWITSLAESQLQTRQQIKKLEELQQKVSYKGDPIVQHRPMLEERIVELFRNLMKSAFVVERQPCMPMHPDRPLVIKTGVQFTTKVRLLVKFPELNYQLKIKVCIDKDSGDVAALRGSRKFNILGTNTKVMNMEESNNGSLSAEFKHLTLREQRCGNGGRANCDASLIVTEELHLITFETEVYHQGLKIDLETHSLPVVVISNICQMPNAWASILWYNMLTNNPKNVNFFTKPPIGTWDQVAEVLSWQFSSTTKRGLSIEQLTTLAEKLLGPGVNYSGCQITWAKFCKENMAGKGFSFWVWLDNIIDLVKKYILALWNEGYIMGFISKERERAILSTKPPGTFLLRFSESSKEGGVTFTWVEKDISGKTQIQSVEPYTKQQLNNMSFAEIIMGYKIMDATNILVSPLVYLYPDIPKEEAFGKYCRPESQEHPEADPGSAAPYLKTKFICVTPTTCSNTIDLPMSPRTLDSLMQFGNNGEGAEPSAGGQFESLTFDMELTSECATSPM
- Assay comment: STAT3 reporter gene assay (luciferase), LNCaP stable cell line (pSTAT3-TA-luc), IL-6 stimulation
- Assay type: cell-based
Response field label takes true (1) when IC50 is strictly below 0.3 µM and false (0) in all other cases.

{"Compound": "Cn1nccc1-c1ccc(C(C)(C)c2cc(Cl)cc(NC(=O)c3cc4cc(NS(C)(=O)=O)ccc4s3)c2)cc1 [Example 159]", "Tgt": "STAT3 (Homo sapiens, UniProt P40763)", "Assigned label": "false (0)"}
{"Compound": "CC(C)(c1ccc(Cl)cc1)c1cc(Cl)cc(NC(=O)c2cc3cc(NS(C)(=O)=O)ccc3s2)c1 [Example 158]", "Tgt": "STAT3 (Homo sapiens, UniProt P40763)", "Assigned label": "true (1)"}
{"Compound": "CC(C)(c1ccc(F)cc1)c1cc(Cl)cc(NC(=O)c2cc3cc(NS(C)(=O)=O)c(Cl)cc3s2)c1 [Example 182]", "Tgt": "STAT3 (Homo sapiens, UniProt P40763)", "Assigned label": "true (1)"}
{"Compound": "CS(=O)(=O)Nc1ccc2cc(C(=O)Nc3cc(-c4ccc(F)cc4F)ccn3)[nH]c2c1 [Example 279]", "Tgt": "STAT3 (Homo sapiens, UniProt P40763)", "Assigned label": "false (0)"}
{"Compound": "CC(C)(c1cc(Br)cc(NC(=O)c2cc3ccc(NS(C)(=O)=O)cc3[nH]2)c1)c1cccc(OC(F)F)c1 [Example 20]", "Tgt": "STAT3 (Homo sapiens, UniProt P40763)", "Assigned label": "true (1)"}

----------
# IC50 per entry
- Test system: LNCaP
- Assay comment: Cell growth inhibition assay, prostate cancer cell line LNCaP (medium with 10 ng/mL IL-6)
- Format: cell-based
- Settings: Homo sapiens, medium supplemented with 10 ng/mL of IL-6, 10,000 cells/well

{"Query smiles": "CC(C)(c1cc(Cl)cc(NC(=O)c2cc3cc(NS(C)(=O)=O)ccc3s2)c1)c1cc(OCC#N)cc(OC(F)(F)F)c1", "IC50 (µM)": 0.3}
{"Query smiles": "CC(C)Oc1cc(OC(F)(F)F)cc(C(C)(C)c2cc(Cl)cc(N(C)C(=O)c3cc4cc(N(C)S(C)(=O)=O)c(F)cc4s3)c2)c1", "IC50 (µM)": 1.1}
{"Query smiles": "COc1ccc(OC)c(C(C)(C)c2cc(Cl)cc(NC(=O)c3cc4cc(NS(C)(=O)=O)ccc4s3)c2)c1", "IC50 (µM)": 0.14}
{"Query smiles": "CC(C)(c1ccc(Cl)cc1)c1cc(Cl)cc(NC(=O)c2cc3cc(NS(C)(=O)=O)ccc3s2)c1", "IC50 (µM)": 0.056}

----------
- System: LNCaP
- Assay comment: Cell growth inhibition assay, prostate cancer cell line LNCaP (medium with 10 ng/mL IL-6)
- Format: cell-based
- Settings: Homo sapiens, medium supplemented with 10 ng/mL of IL-6, 10,000 cells/well
log10 IC50 values for the molecules below.
Parameter: log10 IC50 (log10 of the value in µM)

{"Query smiles": "CCS(=O)(=O)Nc1ccc2sc(C(=O)Nc3cc(Cl)cc(C(C)(C)c4cc(OC(C)C)cc(OC(F)(F)F)c4)c3)cc2c1", "Parameter": "log10 IC50", "Numeric result": -1.85}
{"Query smiles": "Cc1c(C(=O)Nc2cccc(C(C)(C)c3ccc(F)cc3)c2)sc2cc(NS(C)(=O)=O)ccc12", "Parameter": "log10 IC50", "Numeric result": 0.54}
{"Query smiles": "Nc1ccc2[nH]c(C(=O)Nc3cccc(-c4ccccc4C(F)(F)F)c3)cc2c1", "Parameter": "log10 IC50", "Numeric result": 0.72}
{"Query smiles": "CCOc1cc(OC(F)(F)F)cc(C(C)(C)c2cc(Br)cc(NC(=O)c3cc4cc(NS(C)(=O)=O)ccc4s3)c2)c1", "Parameter": "log10 IC50", "Numeric result": -1.11}
{"Query smiles": "COc1cc(NC(=O)c2cc3ccc(NS(C)(=O)=O)cc3[nH]2)cc(S(=O)(=O)c2cccc(OC(F)(F)F)c2)c1", "Parameter": "log10 IC50", "Numeric result": 0.76}
{"Query smiles": "COc1cc(OC(F)(F)F)cc(C(C)(C)c2cccc(NC(=O)c3cc4cc(NS(C)(=O)=O)ccc4s3)c2)c1", "Parameter": "log10 IC50", "Numeric result": -0.82}

----------
- Tested on: DU-145
- Assay comment: Cell growth inhibition assay, prostate cancer cell line DU-145
- Assay type: cell-based
- Settings: Homo sapiens, DU-145 prostate cancer cell line
- Description: The inhibitory effects of the compounds of the present invention against the growth of cancer cells were evaluated as shown below. […] Subsequently, the cells were observed under microscope and drug precipitation and particular findings were investigated and recorded. […]

{"Compound": "Cn1cncc1-c1cc(Cl)cc(NC(=O)c2cc3cc(NS(C)(=O)=O)ccc3s2)c1 [Example 340]", "Relation sign": ">", "IC50, µM": 1.1}
{"Compound": "CC(C)Oc1cc(OC(F)(F)F)cc(C(C)(C)c2cc(Cl)cc(NC(=O)c3cc4cc(NS(=O)(=O)CC5CCCO5)ccc4s3)c2)c1 (stereo not drawn) [Example 197]", "Relation sign": "=", "IC50, µM": 0.016}
{"Compound": "CC(C)(c1cc(Cl)cc(NC(=O)c2cc3cc(NS(C)(=O)=O)ccc3s2)c1)c1ccc(Cl)s1 [Example 174]", "Relation sign": "=", "IC50, µM": 0.033}
{"Compound": "CS(=O)(=O)Nc1cc2cc(C(=O)Nc3cc(Cl)cc(Oc4nccs4)c3)sc2cc1Cl [Example 471]", "Relation sign": "=", "IC50, µM": 0.049}
{"Compound": "CCOc1cc(OC(F)(F)F)cc(C(C)(C)c2cc(Br)cc(NC(=O)c3cc4ccc(NS(C)(=O)=O)cc4[nH]3)c2)c1 [Example 22]", "Relation sign": "=", "IC50, µM": 0.048}
{"Compound": "CC(C)Oc1cc(OC(F)(F)F)cc(C(C)(C)c2cc(Cl)cc(NC(=O)c3cc4cc(NS(=O)(=O)CC5CCOC5)ccc4s3)c2)c1 (stereo not drawn) [Example 196]", "Relation sign": "=", "IC50, µM": 0.022}
{"Compound": "CC(C)Oc1cc(OC(F)(F)F)cc(C(C)(C)c2cc(Cl)cc(NC(=O)c3cc4cc(NC(=O)OC(C)(C)C)ccc4s3)c2)c1 [Example 194]", "Relation sign": ">", "IC50, µM": 1.1}
{"Compound": "CC(C)(c1cc(Cl)cc(NC(=O)c2cc3cc(NS(C)(=O)=O)ccc3s2)c1)n1cnccc1=O [Example 189]", "Relation sign": ">", "IC50, µM": 1.1}
{"Compound": "CS(=O)(=O)Nc1ccc2sc(C(=O)Nc3cc(Cl)cc(-c4ccc(F)cc4F)c3)c(O)c2c1 [Example 335]", "Relation sign": ">", "IC50, µM": 1.1}

----------
- Test system: LNCaP
- Assay comment: Cell growth inhibition assay, prostate cancer cell line LNCaP (medium with 10 ng/mL IL-6)
- Type: cell-based
- Settings: Homo sapiens, medium supplemented with 10 ng/mL of IL-6, 10,000 cells/well
Parameter: IC50 (µM)

{"Compound": "CS(=O)(=O)Nc1ccc2cc(C(=O)Nc3cc(-c4cncnc4)cc(-c4ccc(F)cc4F)c3)[nH]c2c1 [Example 360]", "Parameter": "IC50", "Measurement unit": "µM", "Relation sign": ">", "Numeric result": 10}
{"Compound": "COc1cc2cc(C(=O)Nc3cc(Br)cc(C(C)(C)c4ccc(F)cc4)c3)[nH]c2cc1NS(C)(=O)=O [Example 19]", "Parameter": "IC50", "Measurement unit": "µM", "Relation sign": "=", "Numeric result": 0.52}
{"Compound": "COc1cc(OC(F)(F)F)cc(-c2cc(Cl)cc(NC(=O)c3cc4cc(NS(C)(=O)=O)c(F)cc4s3)c2)c1 [Example 325]", "Parameter": "IC50", "Measurement unit": "µM", "Relation sign": "=", "Numeric result": 0.16}
{"Compound": "COc1cc(OC(F)(F)F)cc(C(C)(C)c2cc(NC(=O)c3cc4cc(NS(C)(=O)=O)ccc4s3)cc(OC(F)F)c2)c1 [Example 41]", "Parameter": "IC50", "Measurement unit": "µM", "Relation sign": "=", "Numeric result": 0.11}
{"Compound": "CS(=O)(=O)Nc1ccc2cc(C(=O)Nc3cc(OCC(F)F)cc(-c4ccc(F)cc4F)c3)[nH]c2c1 [Example 366]", "Parameter": "IC50", "Measurement unit": "µM", "Relation sign": "=", "Numeric result": 6.2}
{"Compound": "CS(=O)(=O)Nc1ccc2sc(C(=O)Nc3cc(Cl)cc(-c4cnccn4)c3)cc2c1 [Example 338]", "Parameter": "IC50", "Measurement unit": "µM", "Relation sign": ">", "Numeric result": 1.1}
{"Compound": "COc1cc(C(F)(F)F)c(-c2cccc(NC(=O)c3cc4ccc(NS(C)(=O)=O)cc4[nH]3)c2)cc1C(N)=O [Example 377]", "Parameter": "IC50", "Measurement unit": "µM", "Relation sign": ">", "Numeric result": 10}
{"Compound": "CC(C)(c1cc(Cl)cc(NC(=O)c2cc3cc(NS(C)(=O)=O)ccc3s2)c1)c1cc(OC2CCNCC2)cc(OC(F)(F)F)c1 [Example 96]", "Parameter": "IC50", "Measurement unit": "µM", "Relation sign": ">", "Numeric result": 1.1}
{"Compound": "CC(C)(c1ccc(S(C)(=O)=O)cc1)c1cc(Cl)cc(NC(=O)c2cc3cc(NS(C)(=O)=O)ccc3s2)c1 [Example 161]", "Parameter": "IC50", "Measurement unit": "µM", "Relation sign": ">", "Numeric result": 1.1}
{"Compound": "CS(=O)(=O)Nc1ccc2cc(C(=O)Nc3cccc(S(=O)(=O)c4cc(O)cc(C#N)c4)c3)[nH]c2c1 [Example 417]", "Parameter": "IC50", "Measurement unit": "µM", "Relation sign": ">", "Numeric result": 10}
